The reported numbers originate from patent US20240043533A1.

Each entry below carries its recorded kon.
# STUDY TARGET: T1, extracellular domain of human ILT3 (huILT3-ECD) (human, UniProt Q8NHJ6 22-259)
# T1 construct: also called human ILT3-ECD
# EXPERIMENTAL PROTOCOL: SPR (Biacore), antibody captured via anti-Fc on CM5 chip, soluble ILT3-ECD injected
Just the number in M⁻¹ s⁻¹, nothing appended.

Example cases with answers are listed next.
BINDER | RESULT UNITS | kon
Hz48A6 B1/C2 (antibody, V domains shown) VH: EVQLVESGGGLMQPGGSLRLSCAASGFTFSSYGMSWVRQAPGKGLEWVATISSGGTYTFYPDSVKGRFTISRDNAKNSLYLQMNSLRAEDTAVYYCARRGWLLHYYAMDYWGQGTSVTVSS VL: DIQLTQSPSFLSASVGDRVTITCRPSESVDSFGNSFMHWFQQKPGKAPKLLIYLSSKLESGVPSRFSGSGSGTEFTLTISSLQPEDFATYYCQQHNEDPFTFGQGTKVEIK | M⁻¹ s⁻¹ | 3.05e+06
Hz48A6 C0/C2 (antibody, V domains shown) VH: EVQLVESGGGLVQPGGSLRLSCAASGFTFSSYGMSWVRQAPGKGLEWVGTISSGGTYTFYPDSVKGRFTISRDNSKNTLYLQMNSLRAEDTAVYYCARRGWLLHYYAMDYWGQGTLVTVSS VL: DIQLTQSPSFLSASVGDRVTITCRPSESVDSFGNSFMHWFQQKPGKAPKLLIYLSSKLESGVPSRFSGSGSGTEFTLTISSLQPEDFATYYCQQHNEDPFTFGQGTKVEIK | M⁻¹ s⁻¹ | 3.45e+06

Prompt: Any idea what its kon is? The binder is Hz48A6 C2/C2 (antibody, V domains shown) VH: EVQLVESGGGLMQPGGSLRLSCAASGFTFSSYGMSWVRQAPGKGLEWVATISSGGTYTFYPDSVKGRFTISRDNSKNTLYLQMNSLRAEDTAVYYCARRGWLLHYYAMDYWGQGTLVTVSS VL: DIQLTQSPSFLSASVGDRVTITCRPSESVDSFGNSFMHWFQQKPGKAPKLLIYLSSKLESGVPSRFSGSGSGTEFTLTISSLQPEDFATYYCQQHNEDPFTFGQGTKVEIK
Completion: 3.06e+06
